- Tested on: Proteus mirabilis
- experiment.summary: Antibacterial activity against Proteus mirabilis NP55 after 18 hrs by Etest method
- Type: functional
- test.parameters: NP55, 18 h
value.kind: log10 MIC (log10 of the value in µg/mL)
Note: values are log10 of MIC expressed in µg/mL.

Would you please look over these solved cases?
- compound: "CCn1cc(C(=O)O)c(=O)c2cc(F)c(N3CCNCC3)cc21"
  value.kind: "log10 MIC"
  meas.value: -1.30
- compound: "O=C(O)c1cn(C2CC2)c2cc(N3CCNCC3)c(F)cc2c1=O"
  value.kind: "log10 MIC"
  meas.value: -1.80
- compound: "Oc1cc(Cl)ccc1Oc1ccc(Cl)cc1Cl"
  value.kind: "log10 MIC"
  meas.value: -0.70
- compound: "CC1=C(C(=O)O)N2C(=O)[C@@H](NC(=O)[C@H](N)c3ccccc3)[C@H]2SC1 [CEPHALEXIN ANHYDROUS]"
  value.kind: "log10 MIC"
  meas.value: 0.60
- compound: "CCn1cc(C(=O)O)c(=O)c2ccc(C)nc21"
  value.kind: "log10 MIC"
  meas.value: 0.48

Okay, next one:
Could you please provide reported log10 MIC for O=C1CN(/N=C/c2ccc([N+](=O)[O-])o2)C(=O)N1 ? Thanks!
1.81

====

- System: Proteus mirabilis
- experiment.summary: Antibacterial activity against Proteus mirabilis NP14 after 18 hrs by Etest method
- Type: functional
- test.parameters: NP14, 18 h
value.kind: MIC (µg/mL)
// note: answer is a bare numeric in µg/mL

- compound: "O=C(O)c1cn(C2CC2)c2cc(N3CCNCC3)c(F)cc2c1=O"
  assayed.target: "Proteus mirabilis"
  unit.abbrev: "µg/mL"
  MIC: 0.06
- compound: "Oc1cc(Cl)ccc1Oc1ccc(Cl)cc1Cl"
  assayed.target: "Proteus mirabilis"
  unit.abbrev: "µg/mL"
  MIC: 0.2

Could you please provide reported MIC for CCn1cc(C(=O)O)c(=O)c2cc(F)c(N3CCNCC3)cc21 ? Thanks!
0.25

Could you please provide reported MIC for CC1(C)S[C@@H]2[C@H](NC(=O)[C@H](N)c3ccccc3)C(=O)N2[C@H]1C(=O)O ? Thanks!
16

Could you please provide reported MIC for CC1=C(C(=O)O)N2C(=O)[C@@H](NC(=O)[C@H](N)c3ccccc3)[C@H]2SC1 [CEPHALEXIN ANHYDROUS] ? Thanks!
3

Could you please provide reported MIC for O=C1CN(/N=C/c2ccc([N+](=O)[O-])o2)C(=O)N1 ? Thanks!
32

Could you please provide reported MIC for CCn1cc(C(=O)O)c(=O)c2ccc(C)nc21 ? Thanks!
3

====

- Tested on: Proteus mirabilis
- experiment.summary: Antibacterial activity against Proteus mirabilis M 29 mutant after 18 hrs by Etest method
- Format: functional
- test.parameters: M 29, 18 h
Measured MIC values are reported for all entries that follow.
// note: answer is a bare numeric in mg/L

Could you please provide reported MIC for CCn1cc(C(=O)O)c(=O)c2cc(F)c(N3CCNCC3)cc21 ? Thanks!
0.03

Could you please provide reported MIC for CCn1cc(C(=O)O)c(=O)c2ccc(C)nc21 ? Thanks!
2

Could you please provide reported MIC for CC1=C(C(=O)O)N2C(=O)[C@@H](NC(=O)[C@H](N)c3ccccc3)[C@H]2SC1 [CEPHALEXIN ANHYDROUS] ? Thanks!
2

Could you please provide reported MIC for O=C(O)c1cn(C2CC2)c2cc(N3CCNCC3)c(F)cc2c1=O ? Thanks!
0.008

Could you please provide reported MIC for Oc1cc(Cl)ccc1Oc1ccc(Cl)cc1Cl ? Thanks!
10

Could you please provide reported MIC for O=C1CN(/N=C/c2ccc([N+](=O)[O-])o2)C(=O)N1 ? Thanks!
16

====

Measured MIC values are reported for all entries that follow.
- Test system: Proteus mirabilis
- experiment.summary: Antibacterial activity against Proteus mirabilis M 21 mutant after 18 hrs by Etest method
- Assay type: functional
- test.parameters: M 21, 18 h
// note: answer is a bare numeric in µg/mL

Would you please look over these solved cases?
- compound: "CC1=C(C(=O)O)N2C(=O)[C@@H](NC(=O)[C@H](N)c3ccccc3)[C@H]2SC1 [CEPHALEXIN ANHYDROUS]"
  assayed.target: "Proteus mirabilis"
  value.kind: "MIC"
  unit.abbrev: "µg/mL"
  meas.value: 3
- compound: "O=C1CN(/N=C/c2ccc([N+](=O)[O-])o2)C(=O)N1"
  assayed.target: "Proteus mirabilis"
  value.kind: "MIC"
  unit.abbrev: "µg/mL"
  meas.value: 48

Okay, next one:
Could you please provide reported MIC for O=C(O)c1cn(C2CC2)c2cc(N3CCNCC3)c(F)cc2c1=O ? Thanks!
0.05

====

- Tested on: Proteus mirabilis
- experiment.summary: Antibacterial activity against Proteus mirabilis M 35 mutant after 18 hrs by Etest method
- Type: functional
- test.parameters: M 35, 18 h
Measured log10(MIC) values are reported for all entries that follow.
Note: values are log10 of MIC expressed in mg/L.

Would you please look over these solved cases?
- compound: "CC1=C(C(=O)O)N2C(=O)[C@@H](NC(=O)[C@H](N)c3ccccc3)[C@H]2SC1 [CEPHALEXIN ANHYDROUS]"
  meas.value: 0.48
- compound: "CCn1cc(C(=O)O)c(=O)c2cc(F)c(N3CCNCC3)cc21 [NORFLOXACIN]"
  meas.value: -1.52
- compound: "Oc1cc(Cl)ccc1Oc1ccc(Cl)cc1Cl [TRICLOSAN]"
  meas.value: 1.60
- compound: "CCn1cc(C(=O)O)c(=O)c2ccc(C)nc21 [NALIDIXIC ACID]"
  meas.value: 0.30
- compound: "O=C1CN(/N=C/c2ccc([N+](=O)[O-])o2)C(=O)N1 [NITROFURANTOIN]"
  meas.value: 1.51

Okay, next one:
Find log10(MIC) for O=C(O)c1cn(C2CC2)c2cc(N3CCNCC3)c(F)cc2c1=O [CIPROFLOXACIN] on Proteus mirabilis and write it down.
-1.80

====

Measured MIC values are reported for all entries that follow.
- System: Proteus mirabilis
- experiment.summary: Antibacterial activity against Proteus mirabilis M 44 mutant after 18 hrs by Etest method
- Assay type: functional
- test.parameters: M 44, 18 h
// note: answer is a bare numeric in µg/mL

- smiles.notation: "CCn1cc(C(=O)O)c(=O)c2cc(F)c(N3CCNCC3)cc21"
  unit.abbrev: "µg/mL"
  MIC: 0.05

Okay, next one:
Find MIC for Oc1cc(Cl)ccc1Oc1ccc(Cl)cc1Cl on Proteus mirabilis and write it down.
40

====

- Test system: Proteus mirabilis
- experiment.summary: Antibacterial activity against Proteus mirabilis M 44 mutant after 18 hrs by Etest method
- Format: functional
- test.parameters: M 44, 18 h
Measured MIC values are reported for all entries that follow.
// note: answer is a bare numeric in µg/mL

Would you please look over these solved cases?
- compound: "CCn1cc(C(=O)O)c(=O)c2ccc(C)nc21"
  MIC, µg/mL: 1.5
- compound: "O=C1CN(/N=C/c2ccc([N+](=O)[O-])o2)C(=O)N1"
  MIC, µg/mL: 32
- compound: "O=C(O)c1cn(C2CC2)c2cc(N3CCNCC3)c(F)cc2c1=O"
  MIC, µg/mL: 0.03

Okay, next one:
Find MIC for CC1=C(C(=O)O)N2C(=O)[C@@H](NC(=O)[C@H](N)c3ccccc3)[C@H]2SC1 [CEPHALEXIN ANHYDROUS] on Proteus mirabilis and write it down.
4

====

- Test system: Proteus mirabilis
- experiment.summary: Antibacterial activity against Proteus mirabilis M 21 mutant after 18 hrs by Etest method
- Format: functional
- test.parameters: M 21, 18 h
Measured MIC values are reported for all entries that follow.

- compound: "CC1(C)S[C@@H]2[C@H](NC(=O)[C@H](N)c3ccccc3)C(=O)N2[C@H]1C(=O)O [AMPICILLIN]"
  assayed.target: "Proteus mirabilis"
  MIC: "16 µg/mL"
- compound: "CCn1cc(C(=O)O)c(=O)c2ccc(C)nc21 [NALIDIXIC ACID]"
  assayed.target: "Proteus mirabilis"
  MIC: "3 µg/mL"
- compound: "Oc1cc(Cl)ccc1Oc1ccc(Cl)cc1Cl [TRICLOSAN]"
  assayed.target: "Proteus mirabilis"
  MIC: "5 µg/mL"
- compound: "CCn1cc(C(=O)O)c(=O)c2cc(F)c(N3CCNCC3)cc21 [NORFLOXACIN]"
  assayed.target: "Proteus mirabilis"
  MIC: "0.19 µg/mL"

Could you please provide reported MIC for COc1cc(Cc2cnc(N)nc2N)cc(OC)c1OC [TRIMETHOPRIM] ? Thanks!
> 32 µg/mL
